Attribution: ChEMBL document CHEMBL1127694

assay: The rate of hydrolytic cleavage in plasma was assessed by incubating compounds (30 uM) at 37 degrees Celsius with human plasma adjusted to pH 7; format: ADME
Measure Name: half-life at 30 µM (min)
Numbers only, in min.

A selection of reference data follows.
CC(OC(=O)C(C)(C)C)[n+]1cccc([C@H]2SCc3c(C(=O)c4cn(C(=O)N(C)C)c5cc(-c6ccc(F)cc6)ccc45)ccn32)c1.[Cl-] (stereo partly drawn) : 31.1
COC(=O)[C@@H]1CCCN1C(=O)OC[n+]1cccc([C@H]2SCc3c(C(=O)c4cn(C(=O)N(C)C)c5cc(-c6ccc(F)cc6)ccc45)ccn32)c1.[Cl-] : 160

Field: next compound
Input: Param item = "Cc1oc(=O)oc1C[n+]1cccc([C@H]2SCc3c(C(=O)c4cn(C(=O)N(C)C)c5cc(-c6ccc(F)cc6)ccc45)ccn32)c1.[Cl-]" ; retrieve measured half-life at 30 µM.
Output: 2.8
